system: Cystic fibrosis transmembrane conductance regulator (Homo sapiens), P13569 [F508del]; assay: Corrector activity at CFTR F508del mutant (unknown origin) expressed in human CFBE41o cells incubated for 18 to 24 hrs by CSE-HRP assay; format: cell-based
Sequence (P13569 as listed by the source): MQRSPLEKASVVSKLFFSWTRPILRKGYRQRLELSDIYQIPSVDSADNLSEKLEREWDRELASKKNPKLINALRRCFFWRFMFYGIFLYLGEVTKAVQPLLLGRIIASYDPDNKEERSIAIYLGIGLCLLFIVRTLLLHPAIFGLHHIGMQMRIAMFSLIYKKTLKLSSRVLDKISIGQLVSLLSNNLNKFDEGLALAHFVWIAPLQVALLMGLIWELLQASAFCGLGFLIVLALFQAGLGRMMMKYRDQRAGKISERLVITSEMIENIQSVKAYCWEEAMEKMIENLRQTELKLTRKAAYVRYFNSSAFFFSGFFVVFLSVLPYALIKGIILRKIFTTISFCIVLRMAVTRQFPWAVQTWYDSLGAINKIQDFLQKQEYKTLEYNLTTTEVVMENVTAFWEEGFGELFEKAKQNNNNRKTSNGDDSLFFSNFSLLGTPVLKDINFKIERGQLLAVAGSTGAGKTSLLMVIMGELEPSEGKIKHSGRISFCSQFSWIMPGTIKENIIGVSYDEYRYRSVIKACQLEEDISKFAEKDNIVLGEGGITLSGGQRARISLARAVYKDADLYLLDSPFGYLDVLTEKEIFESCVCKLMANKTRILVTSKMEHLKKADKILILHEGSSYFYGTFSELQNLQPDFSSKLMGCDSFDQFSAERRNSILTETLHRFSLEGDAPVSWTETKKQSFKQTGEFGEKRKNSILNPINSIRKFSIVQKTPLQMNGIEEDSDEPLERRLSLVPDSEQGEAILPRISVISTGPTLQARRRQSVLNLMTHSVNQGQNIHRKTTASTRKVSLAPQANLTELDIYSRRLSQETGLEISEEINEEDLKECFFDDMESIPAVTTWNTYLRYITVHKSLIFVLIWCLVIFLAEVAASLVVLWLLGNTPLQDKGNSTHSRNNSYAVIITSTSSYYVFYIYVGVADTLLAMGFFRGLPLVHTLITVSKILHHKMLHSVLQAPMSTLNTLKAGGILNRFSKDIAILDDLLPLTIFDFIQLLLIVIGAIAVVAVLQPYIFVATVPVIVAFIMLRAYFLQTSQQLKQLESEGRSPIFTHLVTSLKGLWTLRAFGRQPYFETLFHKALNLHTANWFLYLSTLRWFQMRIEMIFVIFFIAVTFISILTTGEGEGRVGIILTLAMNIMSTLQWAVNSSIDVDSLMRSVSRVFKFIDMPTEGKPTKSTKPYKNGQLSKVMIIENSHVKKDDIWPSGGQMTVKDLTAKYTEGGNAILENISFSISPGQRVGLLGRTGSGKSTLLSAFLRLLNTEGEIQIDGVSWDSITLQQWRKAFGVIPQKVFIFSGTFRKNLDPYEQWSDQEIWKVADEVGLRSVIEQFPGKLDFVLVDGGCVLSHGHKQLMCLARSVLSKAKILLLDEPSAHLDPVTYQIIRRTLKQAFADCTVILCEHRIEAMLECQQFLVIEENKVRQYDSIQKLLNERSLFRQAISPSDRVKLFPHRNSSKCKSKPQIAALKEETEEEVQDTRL
Task for the reader: assign each of the following molecules its reported max activation.
Your answer should be a plain number; it is taken to be in %.

Exam item: Dear colleague, I am looking for the recorded max activation of the following molecule: O=C(O)c1cccc([C@H]2C[C@@H](NC(=O)C3(c4ccc5c(c4)OC(F)(F)O5)CC3)CCO2)c1 (racemic)
Marked response: 71

Exam item: Dear colleague, I am looking for the recorded max activation of the following molecule: O=C(O)c1cccc([C@H]2C[C@@H](NC(=O)C3(c4ccc5c(c4)OC(F)(F)O5)CC3)C[C@@H](c3ccccc3)O2)c1
Marked response: 109

Exam item: Dear colleague, I am looking for the recorded max activation of the following molecule: CCOC(=O)c1cc(C)cc([C@H]2C[C@@H](NC(=O)C3(c4ccc5c(c4)OC(F)(F)O5)CC3)C[C@@H](c3ccccc3)O2)c1 (racemic)
Marked response: 106

Exam item: Dear colleague, I am looking for the recorded max activation of the following molecule: O=C(O)c1ccc([C@H]2C[C@@H](NC(=O)C3(c4ccc5c(c4)OC(F)(F)O5)CC3)CCO2)cc1 (racemic)
Marked response: 113

Exam item: Dear colleague, I am looking for the recorded max activation of the following molecule: O=C(O)c1ccc([C@H]2C[C@@H](NC(=O)C3(c4ccc5c(c4)OC(F)(F)O5)CC3)C[C@@H](c3ccccc3)O2)cc1
Marked response: 81

Exam item: Dear colleague, I am looking for the recorded max activation of the following molecule: O=C(O)c1cccc([C@@H]2C[C@H](NC(=O)C3(c4ccc5c(c4)OC(F)(F)O5)CC3)C[C@H](c3ccccc3)O2)c1
Marked response: 16
